Test system: RXF-631 renal
method summary: NCI tumour cell line growth inhibition, 48 h
Reported TGI is given for each of the following molecules.

Lab entry: RXF-631 renal assay, molecule CN(C(=O)C12C3C4C1C1C2C3C41C(O)C(C)(C)C)C(C)(C)C (stereo not drawn) , TGI = > 100 µM

New cases:
Lab entry: RXF-631 renal assay, molecule O=C1CCCC(O)=C1SC1=C(O)CCCC1=O , TGI = > 100 µM

Lab entry: RXF-631 renal assay, molecule O=c1ccn(C2(CO)C=C(CO)C(O)C2O)c(=O)[nH]1 (stereo not drawn) , TGI = > 25.7 µM

Lab entry: RXF-631 renal assay, molecule O=C1/C(=C/c2ccc(Cl)cc2)CCC1CN1CCOCC1 (stereo not drawn) , TGI = > 62.5 µM

Lab entry: RXF-631 renal assay, molecule COC1C(CO)OC(n2c3c(Cl)cccc3c3c4c(c5c6cccc(Cl)c6[nH]c5c32)C(=O)NC4=O)C(O)C1O (stereo not drawn) , TGI = 84.3 µM

----------
Tested on: NCI-H522 lung
method summary: NCI tumour cell line growth inhibition, 48 h
readout: GI50

# GI50 of C[C@@H](Oc1cc(-n2cnc3ccc(OCC4CCN(C)CC4)cc32)sc1C(N)=O)c1ccccc1Cl = 0.0382 µM

New cases:
# GI50 of O=C(CCN1CCCC1)Nc1ccc2c(NCCc3ccccc3)c3ccccc3nc2c1 = 0.308 µM

# GI50 of CNC(=O)c1cc(Oc2ccc3nc(N[C@@H]4CCCC[C@H]4O)sc3c2)ccn1 = > 76.7 µM

# GI50 of O=C(c1ccco1)c1nc2cc(C(F)(F)F)ccc2[n+]([O-])c1C(F)(F)F = 34.1 µM

# GI50 of Cc1ccc(-c2cc(-c3ccc(C)cc3)nc(N3CCN(CCNc4ccnc5cc(Cl)ccc45)CC3)n2)cc1 = 5.65 µM

----------
System: NCI-H226 lung
method summary: NCI tumour cell line growth inhibition, 48 h
readout: GI50

# GI50 of Cc1cc(NCc2cc(Nc3ccnc4cc(Cl)ccc34)ccc2F)nc(N2CCSCC2)n1 = 2.71 µM

# GI50 of O=C(Oc1ccccc1Cl)c1ccccc1Nc1cccc(C(F)(F)F)c1 = 20.2 µM

# GI50 of Fc1cccc(Cl)c1Cn1c(-c2c(F)cccc2Cl)nc2ccccc21 = 22 µM

# GI50 of COc1ccc(C(=O)/C=C/c2cc(-c3ccc4c(c3)OCO4)n[nH]2)cc1OC = 3.4 µM

New cases:
# GI50 of O=C(Nc1ccc(Oc2ccc(NC(=O)Nc3ccc([N+](=O)[O-])cc3)cc2)cc1)Nc1ccc([N+](=O)[O-])cc1 = 2.9 µM

----------
Test system: 786-0 renal
method summary: NCI tumour cell line growth inhibition, 48 h
readout: TGI (µM)
Provide only the numeric value, understood in µM.

# TGI of Cc1ccc(-c2cc(-c3ccc(C)cc3)nc(N3CCN(CCNc4ccnc5cc(Cl)ccc45)CC3)n2)cc1 = 6.95

Please find the next compound below.
# TGI of COc1cc(-c2nc(-c3ccc(-c4nc5ccc(F)cc5[nH]4)cc3)no2)cc(OC)c1OC = 17.9

----------
Tested on: SN12C renal
method summary: NCI tumour cell line growth inhibition, 48 h
Hi, to clarify the labels: y covers TGI from 30 µM upward, n covers anything below 30 µM.

Textbook exercise: given the entry O=C(Nc1ccc(Nc2ccncc2)cc1)c1ccc(Nc2ccnc3ccc([N+](=O)[O-])cc23)cc1[N+](=O)[O-] , state whether its TGI is greater than or equal to 30 µM.
y

Textbook exercise: given the entry COc1ccc(C2C(C#N)=C(S)N(C3OC(CO)C(O)C(O)C3O)C(C)=C2C(C)=O)cc1 (centres undefined) , state whether its TGI is greater than or equal to 30 µM.
y

Textbook exercise: given the entry CN1CCN(c2ccc3nc(-c4[nH]ncc4Nc4ncnc5c4OCCCN5)[nH]c3c2)CC1 , state whether its TGI is greater than or equal to 30 µM.
n

Textbook exercise: given the entry O=C(Cc1ccc(Nc2ccnc(C(F)(F)F)c2)cc1)Nc1cc(Cl)ccc1O , state whether its TGI is greater than or equal to 30 µM.
y

Textbook exercise: given the entry CN(C)C(=S)/N=c1\ss/c(=N\C(=S)N(C)C)n1Cc1ccco1 , state whether its TGI is greater than or equal to 30 µM.
y

Textbook exercise: given the entry CC(C)=CCC[C@@H](C)C1=CC(=O)C(C)=C(O)C1=O , state whether its TGI is greater than or equal to 30 µM.
n

Textbook exercise: given the entry O=C1CC(c2ccsc2)c2snc(-c3ccc(Cl)cc3)c2N1 (centres undefined) , state whether its TGI is greater than or equal to 30 µM.
y

Textbook exercise: given the entry CN(C)c1ccc2cc3ccc(N(C)C)cc3nc2c1 , state whether its TGI is greater than or equal to 30 µM.
n

Textbook exercise: given the entry CCOC(=O)C1=C(c2ccccc2)C12N(Cc1ccccc1)C(=O)C2(c1ccccc1)c1ccccc1 (centres undefined) , state whether its TGI is greater than or equal to 30 µM.
y

Textbook exercise: given the entry COc1ccc(N2N=NN(C(C)C)/C2=C(/Cl)c2nnnn2-c2ccc(OC)cc2)cc1 , state whether its TGI is greater than or equal to 30 µM.
n

New cases:
Textbook exercise: given the entry COc1cc(-c2nc(-c3ccc(-c4nc5ccc(F)cc5[nH]4)cc3)no2)cc(OC)c1OC , state whether its TGI is greater than or equal to 30 µM.
y

Textbook exercise: given the entry CCCC(C)c1c(Cl)nc(Cl)nc1Cl (centres undefined) , state whether its TGI is greater than or equal to 30 µM.
y

Textbook exercise: given the entry CN(C)c1ccc(Nc2c3ccccc3nc3cc(NC(=O)CCN4CCCC4)ccc23)cc1 , state whether its TGI is greater than or equal to 30 µM.
n

Textbook exercise: given the entry CO[C@]12CC(=O)C3(C(C[C@H]4CC5CC[C@H]6C[C@@H](OC(C)=O)CC[C@]6(OC(C)=O)C5C[C@@]43C)C1)C1C[C@H]3[C@@H]4CC[C@H]5C[C@@H](OC(C)=O)CC[C@]5(OC(C)=O)[C@H]4CC[C@]3(C)C12 (some centres undefined) , state whether its TGI is greater than or equal to 30 µM.
y

Textbook exercise: given the entry O=S1(=O)OCCCOS(=O)(=O)C1(Br)Br , state whether its TGI is greater than or equal to 30 µM.
y

Textbook exercise: given the entry O=C(c1ccco1)c1nc2cc(C(F)(F)F)ccc2[n+]([O-])c1C(F)(F)F , state whether its TGI is greater than or equal to 30 µM.
y

Textbook exercise: given the entry CS(=O)(=O)OCC1CCCCCCCCCCC12SCCCS2 (centres undefined) , state whether its TGI is greater than or equal to 30 µM.
y

----------
Reported TGI is given for each of the following compounds.
System: SR leukemia
method summary: NCI tumour cell line growth inhibition, 48 h

# TGI of CC(=O)OCCOCNC(=S)N/N=C(\C)c1cccs1 = > 100 µM

New cases:
# TGI of CCOC(OCC)C(CC)[Se]c1ccccc1 (stereo not drawn) = 47.7 µM

# TGI of CS(=O)(=O)OCC1CCCCCCCCCCC12SCCCS2 (stereo not drawn) = > 100 µM

----------
Reported TGI is given for each of the following molecules.
Test system: SR leukemia
method summary: NCI tumour cell line growth inhibition, 48 h

# TGI of COC1=CC(=O)c2nc3ccccc3c3ccnc1c23 = 10.8 µM

# TGI of CCN(CC)c1ccc2cc(C(N)=O)c(=Nc3ccc(F)cc3)oc2c1 = > 100 µM

# TGI of COC12C=CC(CC1)C(C)(C)C2OS(C)(=O)=O (stereo not given) = > 100 µM

# TGI of C[N+]1([O-])[C@H]2CC(OC(=O)[C@H](CO)c3ccccc3)C[C@H]1[C@H]1O[C@H]12 (stereo not given in full) = > 100 µM

# TGI of O=C1CC(C(COCc2ccccc2)OCc2ccccc2)CC(=O)N1 (stereo not given) = > 100 µM

# TGI of CN(C)CCNC(=O)c1c2ccccc2cc2ccccc12 = 26.3 µM

New cases:
# TGI of C=C(C)[C@@H]1CC[C@]2(C(=O)O)CC[C@]3(C)[C@H](CC[C@@H]4[C@@]5(C)C/C(=C/c6cccc(I)c6)C(=O)C(C)(C)[C@@H]5CC[C@]43C)[C@@H]12 = 12.5 µM

# TGI of COc1ccc(/C=C\c2cc(OC)c(OC)c(OC)c2)cc1OCC(=O)Nc1nc2ccccc2s1 = > 100 µM

# TGI of O=C(c1ccco1)c1nc2cc(C(F)(F)F)ccc2[n+]([O-])c1C(F)(F)F = > 100 µM

# TGI of COc1cc(C(O)C(=O)c2cnc3cc([N+](=O)[O-])ccc3n2)ccc1O (stereo not given) = > 100 µM
